// data source = ChEMBL document CHEMBL4689842

Task for the reader: assign each of the following molecules its reported Growth Rate.
test system: U2OS; assay: Incucyte cell viability with U2OS; format: toxicity, cell-based; settings: human, 0 h, 10 µM, compound concentration 10 uM, replicate number 1, timepoint 0 hours; also: filed as whole numbers so only -1 and 0 and 1 occur
Answers are plain numbers.

>>> quantitative_result("CCNc1cc(N[C@H]2CC[C@H](O)CC2)nc(Nc2ccc3c(ccn3Cc3ccccc3)c2)n1")
0
>>> quantitative_result("C=C1/C(=C\\C=C2/CCC[C@]3(C)[C@@H]([C@H](C)/C=C/[C@H](C)C(C)C)CC[C@@H]23)C[C@@H](O)C[C@@H]1O")
0
>>> quantitative_result("CN1CCC(=C2c3ccccc3CC(=O)c3sccc32)CC1.O=C(O)/C=C/C(=O)O [KETOTIFEN FUMARATE]")
1

Here's the next entry for you.
Entry COc1cc(N2CCN(C)CC2)ccc1Nc1ncc2c(n1)N(C)c1ccccc1C(=O)N2C — recorded Growth Rate = 0

###

tested on: HEK-293T; assay: Multiplex assay against HEK293T; assay type: toxicity, cell-based; conditions: human, 24 h, 10 µM, compound concentration 10 uM, replicate 1
Label rule met when Population Normal (%) < 90%; otherwise rule not met.

Field: example entries. Status: answers known.
>>> category("CN1C2CCC1CC(OC(c1ccc(F)cc1)c1ccc(F)cc1)C2.Cl (configuration not stated)")
"rule met"
>>> category("CCOc1cc2ncc(C#N)c(Nc3ccc(OCc4ccccn4)c(Cl)c3)c2cc1NC(=O)/C=C/CN(C)C")
"rule met"
>>> category("COCC(=O)NC/C=C/c1ccc2ncnc(Nc3ccc(Oc4ccc(C)nc4)c(C)c3)c2c1")
"rule met"
>>> category("O=C1N/C(=N/c2ccccc2F)S/C1=C\\c1ccc(C(=O)O)cc1")
"rule met"
>>> category("O=C(Nc1cccnn1)N1CCC(=Cc2cccc(Oc3ccc(C(F)(F)F)cn3)c2)CC1")
"rule not met"

I'd appreciate it if you could check whether Cl.O=c1c2cccn2c2ccccc2n1CCCN1CCC(c2ccc(Cl)cc2)CC1 has Population Normal (%) smaller than 90%.
rule met

I'd appreciate it if you could check whether COc1ccc(S(=O)(=O)N(CCO)c2ccccc2CN(C)C/C=C/c2ccc(Cl)cc2)cc1.O=P(O)(O)O has Population Normal (%) smaller than 90%.
rule not met

I'd appreciate it if you could check whether S=C(NCCCc1c[nH]cn1)NCCCN(Cc1ccc(Cl)c(Cl)c1)c1ccc(Br)cn1 has Population Normal (%) smaller than 90%.
rule met

I'd appreciate it if you could check whether Cc1ccc2nc(NCCN)c3ncc(C)n3c2c1.O=C(O)C(F)(F)F.O=C(O)C(F)(F)F has Population Normal (%) smaller than 90%.
rule met

I'd appreciate it if you could check whether O=C(Nc1ccc(-c2ccnc(Nc3ccc(N4CCOCC4)cc3)n2)cc1)[C@@H]1CCCN1 has Population Normal (%) smaller than 90%.
rule met

I'd appreciate it if you could check whether Cn1nc(C(F)(F)F)cc1-c1cnc(N2CCc3cc(S(=O)(=O)Nc4c(F)cc(Cl)cc4F)cc(N4CCCC4=O)c32)nc1 has Population Normal (%) smaller than 90%.
rule not met

I'd appreciate it if you could check whether CCCn1c(=O)c2[nH]c(-c3cnn(Cc4cccc(C(F)(F)F)c4)c3)nc2n(CC)c1=O has Population Normal (%) smaller than 90%.
rule met

###

test system: U2OS; experiment: Multiplex assay against U2OS; type: toxicity, cell-based; conditions: human, 12 h, 1 µM, compound concentration 1 uM, replicate 2
Label condition met when Population Mitotic Cells (%) < 80%; otherwise condition not met.

>>> category("O=C(Nc1ccc(-n2nc(-c3cccnc3)cc2C(F)(F)F)cn1)c1ccc(-c2ccccc2)c(F)c1 [BI 2049]")
"condition met"
>>> category("CCOC(=O)c1c(C)[nH]c2ccc3c(c12)CN1CCc2cc(OC)ccc2C1O3 (stereo unspecified)")
"condition not met"
>>> category("Cl.O=C(c1ccc(Nc2nccc(-c3cc4ccccc4s3)n2)cc1)N1CCC(N2CCCC2)CC1")
"condition not met"
>>> category("COc1cc2ncnc(Nc3ccc(F)c(Cl)c3)c2cc1NC(=O)/C=C/CN1CCCCC1 [DACOMITINIB ANHYDROUS]")
"condition met"
>>> category("CN1CCN(C(=O)C(C)(C)c2ccc(C(=O)Nc3cn4cc(-c5cc(C(C)(C)C)cc(C(C)(C)C)c5)ccc4n3)cc2)CC1 [T3-CLK-N]")
"condition met"
>>> category("COc1ccc(-c2ccc3c(N4CCOCC4)nc(N4C[C@@H](C)O[C@@H](C)C4)nc3n2)cc1CO [Ku-0063794]")
"condition met"
>>> category("O=C(Nc1cccnn1)N1CCC(=Cc2cccc(Oc3ccc(C(F)(F)F)cn3)c2)CC1")
"condition not met"
>>> category("O=C(Cc1ccc(-c2ccc(OCCN3CCOCC3)cc2)cn1)NCc1ccccc1 [TIRBANIBULIN]")
"condition not met"

I'd appreciate it if you could check whether CCc1cccc(CC)c1NC(=O)c1nn(C)c2c1CCc1cnc(Nc3ccc(N4CCN(C)CC4)cc3OC)nc1-2 has Population Mitotic Cells (%) smaller than 80%.
condition met

I'd appreciate it if you could check whether O=C(Nc1ccc(Cl)cc1)Nc1cccc(-c2cccc(N3CCCC3)n2)c1 has Population Mitotic Cells (%) smaller than 80%.
condition met

I'd appreciate it if you could check whether Cn1nc(C(F)(F)F)cc1-c1cnc(N2CCc3cc(S(=O)(=O)Nc4c(F)cc(Cl)cc4F)cc(N4CCCC4=O)c32)nc1 [TP-020] has Population Mitotic Cells (%) smaller than 80%.
condition not met

I'd appreciate it if you could check whether CCNc1cc(N[C@H]2CC[C@H](O)CC2)nc(Nc2ccc3c(ccn3Cc3ccccc3)c2)n1 has Population Mitotic Cells (%) smaller than 80%.
condition met

I'd appreciate it if you could check whether COc1ccc(S(=O)(=O)N(CCO)c2ccccc2CN(C)C/C=C/c2ccc(Cl)cc2)cc1.O=P(O)(O)O has Population Mitotic Cells (%) smaller than 80%.
condition met

I'd appreciate it if you could check whether CCn1c(=O)c(-c2ccc(-c3cncs3)cc2Cl)cc2cnc(Nc3ccc(N4CCN(C)CC4)cc3)nc21 has Population Mitotic Cells (%) smaller than 80%.
condition met

I'd appreciate it if you could check whether CCN1CCN(c2ccc(Nc3cc(N(C)C(=O)Nc4c(Cl)c(OC)cc(OC)c4Cl)ncn3)cc2)CC1 [INFIGRATINIB] has Population Mitotic Cells (%) smaller than 80%.
condition met

I'd appreciate it if you could check whether Cc1cn(-c2cc(NC(=O)c3ccc(C)c(Nc4nccc(-c5cccnc5)n4)c3)cc(C(F)(F)F)c2)cn1 [NILOTINIB] has Population Mitotic Cells (%) smaller than 80%.
condition met
